- Tested on: MET
- assay name: MET biochemical kinase assay
- Parameters: species or system human; concentration or dose not given beside the values
measured quantity: Met Kinase % Inhibition (%)
Give bare numbers, in %.

# annotated cases, reported Met Kinase % Inhibition shown
chemical smiles	Met Kinase % Inhibition, %
Cc1c(Br)ccc2c1C(=Cc1ccc3ccccc3c1O)C(=O)N2	93.1
O=C1Nc2ccc(S(=O)(=O)Nc3ccc(C(F)(F)F)cc3)cc2C1=Cc1cccnc1	73.7

I have 4 molecules here; please give me Met Kinase % Inhibition for each one.
1. CNS(=O)(=O)c1ccc2c(c1)C(=Cc1ccc(OC)c3ccccc13)C(=O)N2
2. CCOc1ccc(C=C2C(=O)Nc3ccc(CCCl)cc32)cc1OC
3. O=C1Nc2ccc(CCCl)cc2C1=Cc1ccc(O)cc1
4. O=C1Nc2c(Br)cc(Br)cc2C1=Cc1cccc(C(F)(F)F)c1F

(A)
1: 22.6; 2: -2.4; 3: 24.0; 4: 28.5

I have 3 molecules here; please give me Met Kinase % Inhibition for each one.
1. COc1c(I)cc(C=C2C(=O)Nc3ccc(I)cc32)cc1C(C)(C)C
2. CC(=O)n1cc(C=C2C(=O)Nc3ccc(I)cc32)c2ccccc21
3. Cc1cc(C=C2C(=O)Nc3ccc(S(=O)(=O)N4CCOCC4)cc32)sc1C

(A)
1: 73.7; 2: 71.1; 3: 26.0

====

- measured target: FLK-1 receptor (Mus musculus, UniProt P35918)
- Construct: expressed in transfected cells; host or cells: NIH3T3 C7#3
- Sequence (P35918 20-1345): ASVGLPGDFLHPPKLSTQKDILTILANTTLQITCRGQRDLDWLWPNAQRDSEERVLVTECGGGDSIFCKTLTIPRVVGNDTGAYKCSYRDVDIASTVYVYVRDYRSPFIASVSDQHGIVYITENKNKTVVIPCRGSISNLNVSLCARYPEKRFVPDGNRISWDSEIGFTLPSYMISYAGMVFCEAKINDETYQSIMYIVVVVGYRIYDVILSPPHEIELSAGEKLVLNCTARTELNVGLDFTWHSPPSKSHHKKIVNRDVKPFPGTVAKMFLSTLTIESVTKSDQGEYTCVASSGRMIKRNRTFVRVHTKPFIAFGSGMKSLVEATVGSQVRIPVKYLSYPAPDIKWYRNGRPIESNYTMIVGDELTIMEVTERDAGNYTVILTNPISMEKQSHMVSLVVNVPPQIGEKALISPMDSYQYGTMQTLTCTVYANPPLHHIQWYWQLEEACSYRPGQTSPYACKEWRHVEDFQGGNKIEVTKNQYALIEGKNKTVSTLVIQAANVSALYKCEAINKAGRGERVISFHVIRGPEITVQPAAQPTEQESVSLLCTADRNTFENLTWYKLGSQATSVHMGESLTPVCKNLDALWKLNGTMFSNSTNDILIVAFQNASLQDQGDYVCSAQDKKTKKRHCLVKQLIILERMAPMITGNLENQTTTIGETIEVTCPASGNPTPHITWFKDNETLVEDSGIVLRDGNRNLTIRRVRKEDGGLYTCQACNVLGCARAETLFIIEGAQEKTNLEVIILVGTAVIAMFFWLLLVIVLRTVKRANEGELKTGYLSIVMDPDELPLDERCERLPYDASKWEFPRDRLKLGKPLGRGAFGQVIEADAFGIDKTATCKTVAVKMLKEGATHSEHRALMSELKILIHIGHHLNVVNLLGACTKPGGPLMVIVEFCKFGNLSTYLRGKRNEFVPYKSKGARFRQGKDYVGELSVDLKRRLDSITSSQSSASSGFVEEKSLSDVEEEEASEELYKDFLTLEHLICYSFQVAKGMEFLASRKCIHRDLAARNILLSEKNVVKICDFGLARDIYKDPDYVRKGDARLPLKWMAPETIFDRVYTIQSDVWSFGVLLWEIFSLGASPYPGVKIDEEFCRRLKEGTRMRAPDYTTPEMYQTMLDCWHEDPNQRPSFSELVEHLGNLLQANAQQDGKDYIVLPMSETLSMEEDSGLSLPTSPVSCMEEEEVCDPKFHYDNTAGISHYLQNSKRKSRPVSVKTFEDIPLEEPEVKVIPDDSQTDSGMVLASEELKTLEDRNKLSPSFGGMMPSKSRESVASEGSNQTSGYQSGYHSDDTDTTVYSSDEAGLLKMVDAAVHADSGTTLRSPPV
- assay name: FLK-1 ELISA (kinase activity of the FLK-1 receptor in FLK-1/NIH3T3 cells, VEGF stimulated)
- Assay type: cell-based
measured quantity: Fik Kinase %Inhibition (%)
Give bare numbers, in %.

# annotated cases, reported Fik Kinase %Inhibition shown
chemical smiles	Fik Kinase %Inhibition, %
COc1c(Br)cc(C=C2C(=O)Nc3ccc(I)cc32)cc1C(C)(C)C	1.6
CNS(=O)(=O)c1ccc2c(c1)C(=Cc1coc3ccccc3c1=O)C(=O)N2	19.7
COc1cc(C=C2C(=O)Nc3c(Br)cc(Br)cc32)cc(OC)c1OC	-9.9

I have 2 compounds here; please give me Fik Kinase %Inhibition for each one.
1. Cc1[nH]c(C=C2C(=O)Nc3ccc(Br)c(C)c32)c(Br)c1Br
2. CCc1ccc(C=C2C(=O)Nc3c(Br)cc(Br)cc32)o1

(A)
1. 4.6
2. 1.6

====

- measured target: EGFR (Homo sapiens, UniProt P00533)
- Construct: Add 7 ug A431 cell lysate per well (EGFR source); endogenous in cells; host or cells: A431
- Sequence (P00533 25-1210): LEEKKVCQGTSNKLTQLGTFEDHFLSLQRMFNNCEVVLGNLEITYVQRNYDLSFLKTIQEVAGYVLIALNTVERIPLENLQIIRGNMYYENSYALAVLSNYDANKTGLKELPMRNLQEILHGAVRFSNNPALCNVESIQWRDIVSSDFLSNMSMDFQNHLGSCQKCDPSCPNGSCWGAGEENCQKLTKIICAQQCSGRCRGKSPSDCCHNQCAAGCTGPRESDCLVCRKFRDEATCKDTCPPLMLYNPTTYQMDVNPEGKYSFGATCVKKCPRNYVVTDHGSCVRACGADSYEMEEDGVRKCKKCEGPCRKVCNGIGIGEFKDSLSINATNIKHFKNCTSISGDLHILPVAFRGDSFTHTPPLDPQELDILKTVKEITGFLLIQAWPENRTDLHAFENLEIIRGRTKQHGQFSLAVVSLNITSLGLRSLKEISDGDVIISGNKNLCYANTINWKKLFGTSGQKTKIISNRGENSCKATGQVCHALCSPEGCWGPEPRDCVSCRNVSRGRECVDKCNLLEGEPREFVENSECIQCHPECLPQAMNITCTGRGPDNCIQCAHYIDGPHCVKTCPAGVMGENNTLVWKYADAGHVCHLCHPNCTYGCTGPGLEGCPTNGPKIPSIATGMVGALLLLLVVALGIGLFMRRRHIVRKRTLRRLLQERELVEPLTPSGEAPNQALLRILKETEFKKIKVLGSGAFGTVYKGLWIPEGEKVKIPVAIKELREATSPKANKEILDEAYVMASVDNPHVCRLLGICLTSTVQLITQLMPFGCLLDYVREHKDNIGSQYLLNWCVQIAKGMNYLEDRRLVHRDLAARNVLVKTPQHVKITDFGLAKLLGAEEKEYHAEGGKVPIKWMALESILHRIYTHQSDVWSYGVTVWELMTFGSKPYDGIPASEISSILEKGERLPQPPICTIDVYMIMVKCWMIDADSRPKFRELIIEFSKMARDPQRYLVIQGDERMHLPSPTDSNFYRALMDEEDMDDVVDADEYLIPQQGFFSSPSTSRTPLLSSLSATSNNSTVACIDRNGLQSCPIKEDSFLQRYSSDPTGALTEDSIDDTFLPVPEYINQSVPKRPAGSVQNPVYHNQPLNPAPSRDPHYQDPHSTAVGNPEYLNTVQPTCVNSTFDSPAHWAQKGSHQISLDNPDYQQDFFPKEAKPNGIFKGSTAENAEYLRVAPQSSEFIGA
- assay name: EGFR ELISA assay (in vitro kinase activity, EGFR captured from A431 cell lysate)
- Assay type: biochemical
- Set-up: concentration or dose not given beside the values
Assignment: determine reported Biochem EGFR %Inhibition for the given compounds.

compound	Biochem EGFR %Inhibition
CCOc1cc(C=C2C(=O)Nc3ccc(S(=O)(=O)N4CCOCC4)cc32)ccc1O	6.4%
CNS(=O)(=O)c1ccc2c(c1)C(=Cc1cccs1)C(=O)N2	-1.4%

I have 6 compounds here; please give me Biochem EGFR %Inhibition for each one.
1. Cc1c(O)ccc(C=C2C(=O)Nc3ccc(S(=O)(=O)Nc4ccc(C(F)(F)F)cc4)cc32)c1O
2. O=C1Nc2c(Br)cc(Br)cc2C1=Cc1ccccn1
3. COc1c(Cl)cc(C=C2C(=O)Nc3ccc(S(=O)(=O)N4CCOCC4)cc32)cc1C(C)(C)C
4. COc1ccc(C=C2C(=O)Nc3ccc(Br)c(C)c32)c2ccccc12
5. O=C1Nc2ccc(CCCl)cc2C1=Cc1ccc(N2CCCC2)cc1
6. O=C1Nc2ccc(S(=O)(=O)N3CCOCC3)cc2C1=Cc1cc(O)c2c(c1O)CCCC2

(A)
1: 17.0%; 2: 49.0%; 3: -13.4%; 4: 25.7%; 5: 60.1%; 6: 76.2%

I have 4 compounds here; please give me Biochem EGFR %Inhibition for each one.
1. O=C1Nc2ccc(I)cc2C1=Cc1ccc(N2CCCC2)cc1
2. O=C1Nc2ccc(S(=O)(=O)N3CCOCC3)cc2C1=Cc1c(Br)cnn1-c1ccc(Cl)cc1
3. O=C1Nc2ccc(S(=O)(=O)Nc3ccc(C(F)(F)F)cc3)cc2C1=Cc1ccccc1
4. Cc1cc(C=C2C(=O)Nc3ccc(S(=O)(=O)Nc4ccc(C(F)(F)F)cc4)cc32)cc(C)c1O

(A)
68.3%
3.7%
30.1%
28.7%

I have 5 compounds here; please give me Biochem EGFR %Inhibition for each one.
1. CSc1ccc(C=C2C(=O)Nc3ccc(I)cc32)cc1
2. COc1c(C(C)(C)C)cc(C=C2C(=O)Nc3c(Br)cc(Br)cc32)cc1C(C)(C)C
3. Cc1ccsc1C=C1C(=O)Nc2ccc(S(=O)(=O)Nc3ccc(C(F)(F)F)cc3)cc21
4. O=C1Nc2ccc(CCCl)cc2C1=Cc1ccc(O)c([N+](=O)[O-])c1
5. CCc1ccc(C=C2C(=O)Nc3ccc(Br)c(C)c32)s1

(A)
["63.7%", "32.8%", "12.6%", "7.8%", "2.8%"]
